Ref: patent US10512634B2

biological target: HDAC4 (Homo sapiens (Human))
Sequence (P56524 whole entry): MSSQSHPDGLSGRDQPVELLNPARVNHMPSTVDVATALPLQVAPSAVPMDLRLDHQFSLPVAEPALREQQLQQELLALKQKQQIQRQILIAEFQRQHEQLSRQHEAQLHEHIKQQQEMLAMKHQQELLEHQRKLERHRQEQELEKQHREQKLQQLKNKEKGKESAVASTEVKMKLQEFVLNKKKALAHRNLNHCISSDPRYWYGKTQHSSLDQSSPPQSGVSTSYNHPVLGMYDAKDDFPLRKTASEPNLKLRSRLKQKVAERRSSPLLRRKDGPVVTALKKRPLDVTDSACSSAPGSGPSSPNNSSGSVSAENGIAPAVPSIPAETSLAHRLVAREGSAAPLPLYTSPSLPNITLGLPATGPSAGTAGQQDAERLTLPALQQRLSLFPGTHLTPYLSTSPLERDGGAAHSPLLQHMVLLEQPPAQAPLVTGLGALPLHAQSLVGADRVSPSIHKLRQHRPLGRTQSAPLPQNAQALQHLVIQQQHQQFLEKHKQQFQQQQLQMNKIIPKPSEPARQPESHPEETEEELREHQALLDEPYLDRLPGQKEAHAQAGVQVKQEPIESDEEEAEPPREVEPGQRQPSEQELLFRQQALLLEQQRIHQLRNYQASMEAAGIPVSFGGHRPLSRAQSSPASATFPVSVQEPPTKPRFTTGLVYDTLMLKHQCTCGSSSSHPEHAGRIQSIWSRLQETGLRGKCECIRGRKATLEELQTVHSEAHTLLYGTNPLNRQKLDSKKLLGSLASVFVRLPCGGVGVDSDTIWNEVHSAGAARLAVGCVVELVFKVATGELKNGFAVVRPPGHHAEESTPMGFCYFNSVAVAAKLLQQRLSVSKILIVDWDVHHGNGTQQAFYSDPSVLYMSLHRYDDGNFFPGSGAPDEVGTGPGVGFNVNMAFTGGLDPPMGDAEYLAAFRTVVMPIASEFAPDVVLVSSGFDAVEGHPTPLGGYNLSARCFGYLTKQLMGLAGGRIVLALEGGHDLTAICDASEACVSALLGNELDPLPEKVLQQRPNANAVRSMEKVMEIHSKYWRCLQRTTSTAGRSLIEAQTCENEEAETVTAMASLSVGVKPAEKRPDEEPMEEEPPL
pIC50: −log10 of the molar value.
Catalogue of pIC50 values

# SMILES STRING, TESTED SYSTEM, pIC50
measured = [
    ("Cc1cc(O)cc(C)c1-c1nc2ccc(C(=O)NO)cc2[nH]1", "HDAC4 (Homo sapiens (Human))", "< 5.00"),
]

Shift focus to the following entry.
Provide value of pIC50 for this record tested with HDAC4 (Homo sapiens (Human)): `O=C(NO)c1ccc2nc(-c3ccccc3C(F)(F)F)[nH]c2c1` < 5.00

----------
The entries below are paired with their reported pIC50.
target: HDAC6 (Homo sapiens (Human)); test: HDAC in vitro enzymatic assay (fluorescence); format: biochemical; details: selectivity profiling; top concentration 2 μM; read-out: IC50 HDAC6
Where a name gives a salt, the structure may show the parent alone.
Please treat pIC50 as minus the base-10 logarithm of the molar concentration.

As a guide, the following entries are already answered.
# COMPOUND, TESTED SYSTEM, REPORTED ENDPOINT, RECORDED VALUE
records = [
    ("CC(C)Oc1ccc(-c2nc3ccc(C(=O)NO)cc3[nH]2)cc1 [Example 97]", "HDAC6 (Homo sapiens (Human))", "pIC50", 7.92),
    ("O=C(NO)c1ccc2nc(-c3ccc(-c4ccccc4)cc3)[nH]c2c1 [Example 6]", "HDAC6 (Homo sapiens (Human))", "pIC50", 7.82),
    ("CN1CCN(Cc2ccc(-c3nc4ccc(C(=O)NO)cc4[nH]3)cc2)CC1 [Example 207]", "HDAC6 (Homo sapiens (Human))", "pIC50", 8.15),
    ("CCCCc1ccc(-c2nc3ccc(C(=O)NO)cc3[nH]2)cc1 [Example 162]", "HDAC6 (Homo sapiens (Human))", "pIC50", 7.51),
    ("O=C(NO)c1ccc2nc(-c3cccs3)[nH]c2c1 [Example 98]", "HDAC6 (Homo sapiens (Human))", "pIC50", 8.15),
]

Please give the measured pIC50 for this compound: CC(C)c1ccc(-c2nc3cc(C(=O)NO)ccc3n2C)cc1 [Example 223] 7.55

Request the reported pIC50 associated with O=C(NO)c1ccc2nc(-c3ccc(-c4ccc(CN5CCOCC5)cc4)cc3)[nH]c2c1 [Example 190, trifluoroacetate] 7.68

Would you kindly share the measured pIC50 for CC(C)c1ccc(-c2nc3ccc(C(=O)NO)cc3[nH]2)cc1 [Example 50] ? 7.85

Need pIC50, item CCc1ccc(-c2nc3ccc(C(=O)NO)cc3[nH]2)cc1 [Example 109] 7.34
